Numbers sourced from patent US8148391B2.

# Subject of test: c-Met (cytoplasmic domain) (Homo sapiens, UniProt P08581)
# Construct: 10 ng/mL c-Met (cytoplasmic domain, Invitrogen Corporation #PV3143); purchased Invitrogen Corporation PV3143
# Sequence (P08581 956-1390 limits assumed): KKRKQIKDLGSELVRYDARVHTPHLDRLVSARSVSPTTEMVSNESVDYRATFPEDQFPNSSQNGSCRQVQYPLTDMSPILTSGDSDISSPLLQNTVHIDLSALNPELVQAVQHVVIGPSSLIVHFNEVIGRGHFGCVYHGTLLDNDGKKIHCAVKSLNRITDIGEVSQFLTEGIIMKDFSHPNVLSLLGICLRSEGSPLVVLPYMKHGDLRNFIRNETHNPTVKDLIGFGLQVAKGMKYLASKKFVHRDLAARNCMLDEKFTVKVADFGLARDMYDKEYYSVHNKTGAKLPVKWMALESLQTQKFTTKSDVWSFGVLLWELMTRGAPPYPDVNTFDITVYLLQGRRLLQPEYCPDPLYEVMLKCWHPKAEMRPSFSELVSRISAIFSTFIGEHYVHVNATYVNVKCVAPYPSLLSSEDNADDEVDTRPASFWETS
# Procedure text: c-Met Kinase Assay (same methods as for ALK, with modifications)
# Type: biochemical
# Condition info: c-Met kinase inhibition, 1 μM ATP; read-out: cMet Activity
Measurement label: IC50

Completed entries (count: 3):
Cc1noc(-c2ccccc2Nc2nc(Nc3ccc4c(c3)CCOC(=O)N4C)ncc2Cl)n1	1000 to 10000 nM
CCN1CC(=O)Nc2cc(Nc3ncc(Cl)c(N[C@@H]4CCCC[C@H]4NS(C)(=O)=O)n3)c(OC)cc2C1	> 10000 nM
CNC(=O)c1scc(C)c1Nc1nc(Nc2ccc3c(c2)CCOC(=O)N3C)ncc1Cl	< 100 nM

Task item: Item under review: CCN1C(=O)C(NC(C)=O)CC(C)(C)c2ccc(Nc3ncc(Cl)c(Nc4c(F)cccc4C(=O)NC)n3)cc21 (stereo not shown) . Reported IC50?
Reply: < 100 nM

Task item: Repeat for the following molecule: C=CCOc1cc(N(C)C)cc(F)c1Nc1nc(Nc2ccc3c(c2)CCOC(=O)N3C)ncc1Cl
Reply: 100 to 1000 nM

Task item: Repeat for the following molecule: CNC(=O)c1cccc(F)c1Nc1nc(Nc2ccc3c(c2)NC(=O)CN(C(=O)OCc2ccccc2)C3)ncc1Cl
Reply: < 100 nM

Task item: Repeat for the following molecule: CCN1CCNCc2cc(OC)c(Nc3ncc(Cl)c(N[C@H]4[C@@H](C(N)=O)[C@@H]5C=C[C@H]4C5)n3)cc21
Reply: > 10000 nM

---

Each entry below carries its recorded pIC50.
# Subject of test: baculovirus-expressed ALK (Homo sapiens, UniProt Q9UM73)
# Construct: host or cells: baculovirus expression system
# Sequence (Q9UM73 19-1620): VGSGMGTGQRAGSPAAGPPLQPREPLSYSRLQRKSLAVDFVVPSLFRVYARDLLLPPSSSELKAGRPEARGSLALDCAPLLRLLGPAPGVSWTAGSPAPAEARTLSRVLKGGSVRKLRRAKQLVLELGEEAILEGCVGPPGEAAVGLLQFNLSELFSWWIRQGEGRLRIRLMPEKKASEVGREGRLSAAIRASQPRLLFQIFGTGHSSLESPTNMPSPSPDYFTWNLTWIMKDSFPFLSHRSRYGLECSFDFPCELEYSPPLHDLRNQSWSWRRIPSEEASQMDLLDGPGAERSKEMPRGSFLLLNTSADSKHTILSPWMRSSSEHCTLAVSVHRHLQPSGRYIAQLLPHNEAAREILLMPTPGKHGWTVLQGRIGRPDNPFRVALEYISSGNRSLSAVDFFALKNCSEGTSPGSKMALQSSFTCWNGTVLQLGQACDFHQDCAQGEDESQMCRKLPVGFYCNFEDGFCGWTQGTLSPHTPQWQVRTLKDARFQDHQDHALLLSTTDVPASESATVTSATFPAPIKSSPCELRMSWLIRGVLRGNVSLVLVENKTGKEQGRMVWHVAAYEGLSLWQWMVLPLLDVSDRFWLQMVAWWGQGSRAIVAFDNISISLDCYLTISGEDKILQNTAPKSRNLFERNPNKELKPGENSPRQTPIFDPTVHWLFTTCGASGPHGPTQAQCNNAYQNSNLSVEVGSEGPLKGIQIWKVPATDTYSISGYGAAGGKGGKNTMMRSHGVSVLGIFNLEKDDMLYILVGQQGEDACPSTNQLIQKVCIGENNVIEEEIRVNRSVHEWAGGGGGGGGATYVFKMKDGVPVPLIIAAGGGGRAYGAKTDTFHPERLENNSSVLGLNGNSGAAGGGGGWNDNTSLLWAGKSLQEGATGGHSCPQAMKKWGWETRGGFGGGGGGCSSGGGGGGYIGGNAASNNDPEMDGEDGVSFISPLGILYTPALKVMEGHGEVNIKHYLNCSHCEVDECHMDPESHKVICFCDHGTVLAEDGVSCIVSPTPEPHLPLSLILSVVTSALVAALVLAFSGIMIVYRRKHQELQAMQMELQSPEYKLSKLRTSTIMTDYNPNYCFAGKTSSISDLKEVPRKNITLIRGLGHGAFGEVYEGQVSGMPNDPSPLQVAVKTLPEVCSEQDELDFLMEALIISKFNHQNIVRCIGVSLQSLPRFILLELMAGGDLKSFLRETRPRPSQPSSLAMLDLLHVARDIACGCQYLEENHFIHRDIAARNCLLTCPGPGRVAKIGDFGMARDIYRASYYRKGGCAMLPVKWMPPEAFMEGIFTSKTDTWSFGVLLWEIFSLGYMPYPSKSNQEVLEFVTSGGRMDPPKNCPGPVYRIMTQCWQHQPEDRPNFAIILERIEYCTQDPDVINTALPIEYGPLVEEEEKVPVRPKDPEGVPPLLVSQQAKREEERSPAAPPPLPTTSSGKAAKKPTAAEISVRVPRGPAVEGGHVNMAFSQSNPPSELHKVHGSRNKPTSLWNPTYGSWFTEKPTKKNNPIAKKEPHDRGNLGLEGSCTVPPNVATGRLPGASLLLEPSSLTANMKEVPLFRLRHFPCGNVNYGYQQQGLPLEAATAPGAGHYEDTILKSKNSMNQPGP
# Procedure text: ALK Kinase Assay (ELISA-type, time-resolved fluorescence)
# Assay type: biochemical
# Condition info: 1 μM ATP (Km level), 30 ng/ml ALK, 37° C., 15 minutes; read-out: ALK Activity (ALK kinase inhibition, IC50 class)
# Method: Briefly, each 96-well plate was coated with 100 μL/well of 10 μg/mL substrate (phospholipase C-γ) in Tris-buffered saline (TBS). […] The reaction was initiated by adding enzyme (30 ng/ml ALK) and was allowed to proceed at 37° C. for 15 minutes. Detection of the phosphorylated product was performed by adding 100 μl/well of Eu-N1 labeled PT66 antibody (Perkin Elmer # AD0041). Data analysis was performed using ActivityBase (IDBS, Guilford, UK). […]
pIC50: −log10 of the molar value.

Completed entries (count: 5):
CC(C)S(=O)(=O)c1cccc(F)c1Nc1nc(Nc2ccc3c(c2)NC(=O)CCC3(C)C)ncc1Cl	6.00 to 7.00
CN1C(=O)CCCc2cc(Nc3ncc(Cl)c(Nc4ccc5[nH]c(C(F)(F)F)nc5c4)n3)ccc21	6.00 to 7.00
CCN1C(=O)[C@@H](NC(=O)C2CC2)CCc2c1ccc(Nc1ncc(Cl)c(N[C@H]3[C@@H](C(N)=O)[C@@H]4C=C[C@H]3C4)n1)c2OC (single isomer, unassigned)	> 7.00
C#CCNC(=O)c1cccc(F)c1Nc1nc(Nc2ccc3c(c2)OCCCN3C(=O)OC(C)C)ncc1Cl	6.00 to 7.00
COCCNC1CCc2cc(Nc3ncc(Cl)c(Nc4ccccc4S(=O)(=O)N(C)C)n3)c(OC)cc2CC1 (stereo not shown)	> 7.00

Task item: Item under review: COCC(COC)N1CCc2cc(Nc3ncc(Cl)c(Nc4ccc(C(N)=O)cc4OC)n3)c(OC)cc2CC1 . Reported pIC50?
Reply: > 7.00

Task item: Repeat for the following molecule: C#CCNC(=O)c1cccc(F)c1Nc1nc(Nc2ccc3c(c2)OCCCN3C(=O)OCCOC)ncc1Cl
Reply: > 7.00
